As shown below, each of these binders has a reported kon value.
Assayed target: T1, full length recombinant human 2N4R tau (human, UniProt P10636 1-758)
T1 construct: bought from rPeptide; pHrodo Red maleimide-labelled where it stands in uptake assays; also called tau1-441; full length tau
T1 sequence (P10636 other isoform, or with tags, fused parts or gaps limits assumed): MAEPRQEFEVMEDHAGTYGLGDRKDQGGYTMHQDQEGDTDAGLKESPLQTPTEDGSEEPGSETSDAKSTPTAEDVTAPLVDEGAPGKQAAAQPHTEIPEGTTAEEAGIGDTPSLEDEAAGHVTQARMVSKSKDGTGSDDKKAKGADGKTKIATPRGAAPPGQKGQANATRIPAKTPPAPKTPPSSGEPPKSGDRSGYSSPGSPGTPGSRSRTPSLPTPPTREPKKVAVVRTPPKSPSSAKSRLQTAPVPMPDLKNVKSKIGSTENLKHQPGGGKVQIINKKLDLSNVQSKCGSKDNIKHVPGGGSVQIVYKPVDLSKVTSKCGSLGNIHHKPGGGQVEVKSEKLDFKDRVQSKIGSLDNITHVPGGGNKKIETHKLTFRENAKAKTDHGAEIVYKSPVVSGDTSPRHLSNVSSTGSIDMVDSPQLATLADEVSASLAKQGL
Assay method text: SPR SCK, IgG on Protein A, tau in flow
Write down the numeric answer in M⁻¹ s⁻¹ and omit the unit.

Take a look at these entries with their results.
INSERT INTO assay_data (binder, recorded_result) VALUES
  ('#44 VH5VK3 humanised hIgG1 (antibody, V domains shown, also called VH5Vκ3) VH: QVQLQESGPGLVKPSETLSLTCTVSGIDLSSYAMAWVRQAPGKGLEWIGCIDRRGGTFYASWVKGRFTISRDNSKNTLDLQMTSLTAEDTATYYCARDSGAFDPWGQGTLVTVSS VL: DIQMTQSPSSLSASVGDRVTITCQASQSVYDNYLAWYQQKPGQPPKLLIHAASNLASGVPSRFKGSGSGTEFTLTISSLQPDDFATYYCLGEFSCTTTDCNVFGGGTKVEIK', '2.86e+06'),
  ('#44 VH0VK0 chimeric human IgG1 (antibody, V domains shown, rabbit VH and VK on human IgG1; also called VH0Vκ0; Clone #44 hIgG1) VH: QSVEESGGRLVTPGTPLTLTCTVSGIDLSSYAMAWVRQAPGKGLEWIGCIDRRGGTFYASWVKGRFTISKTSTTVDLKMTSLTTEDTATYFCARDSGAFDPWGPGTLVTVSS VL: QIVMTQTPSSVSAAVGGTVTIKCQASQSVYDNYLAWYQQKPGQPPKLLIHAASNLASRVPSRFKGSGSGTQFTLTISDVQCDDAATYYCLGEFSCTTTDCNVFGGGTEVVVK', '3.28e+06'),
  ('#44 VH5VK1 humanised hIgG1 (antibody, V domains shown, also called VH5Vκ1) VH: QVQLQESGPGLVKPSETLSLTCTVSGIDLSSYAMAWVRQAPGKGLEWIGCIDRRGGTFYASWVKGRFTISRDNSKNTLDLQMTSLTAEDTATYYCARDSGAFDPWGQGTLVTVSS VL: QIVMTQSPSSLSASVGDRVTITCQASQSVYDNYLAWYQQKPGQPPKLLIHAASNLASRVPSRFKGSGSGTEFTLTISSLQCDDFATYYCLGEFSCTTTDCNVFGGGTEVVIK', '2.25e+07'),
  ('#44 VH1VK2 humanised hIgG1 (antibody, V domains shown, also called VH1Vκ2) VH: QSVQESGGGLVKPSETLSLTCTVSGIDLSSYAMAWVRQAPGKGLEWIGCIDRRGGTFYASWVKGRFTISKTSTTVDLKMTSLTAEDTATYFCARDSGAFDPWGQGTLVTVSS VL: QIVMTQSPSSLSASVGDRVTITCQASQSVYDNYLAWYQQKPGQPPKLLIHAASNLASGVPSRFKGSGSGTEFTLTISSLQPDDFATYYCLGEFSCTTTDCNVFGGGTKVEIK', '5.43e+06'),
  ('#44 VH2VK1 humanised hIgG1 (antibody, V domains shown, also called VH2Vκ1) VH: QSVQESGPGLVKPSETLSLTCTVSGIDLSSYAMAWVRQAPGKGLEWIGCIDRRGGTFYASWVKGRFTISKTSTTVDLQMTSLTAEDTATYFCARDSGAFDPWGQGTLVTVSS VL: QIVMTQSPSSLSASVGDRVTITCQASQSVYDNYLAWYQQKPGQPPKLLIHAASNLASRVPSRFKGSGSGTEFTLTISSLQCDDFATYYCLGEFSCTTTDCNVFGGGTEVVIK', '2.64e+06'),
  ('#44 VH4VK3 humanised hIgG1 (antibody, V domains shown, also called VH4Vκ3; Clone VH4VK3 (D)) VH: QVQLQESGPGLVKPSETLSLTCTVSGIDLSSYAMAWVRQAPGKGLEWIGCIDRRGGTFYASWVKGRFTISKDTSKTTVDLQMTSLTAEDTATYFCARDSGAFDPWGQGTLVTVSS VL: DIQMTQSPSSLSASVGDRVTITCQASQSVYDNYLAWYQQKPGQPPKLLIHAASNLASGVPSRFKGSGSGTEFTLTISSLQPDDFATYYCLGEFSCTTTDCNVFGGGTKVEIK', '5.09e+06'),
  ('#44 VH2VK2 humanised hIgG1 (antibody, V domains shown, also called VH2Vκ2) VH: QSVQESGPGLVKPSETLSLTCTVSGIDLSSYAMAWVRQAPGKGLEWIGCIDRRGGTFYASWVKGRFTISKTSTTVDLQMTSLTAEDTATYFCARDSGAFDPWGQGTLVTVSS VL: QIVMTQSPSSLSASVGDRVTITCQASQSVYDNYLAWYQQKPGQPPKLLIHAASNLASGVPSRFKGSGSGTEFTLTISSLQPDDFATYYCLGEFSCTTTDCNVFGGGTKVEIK', '3.63e+06');

Entry #44 VH3VK4 humanised hIgG1 (antibody, V domains shown, also called VH3Vκ4; Clone VH3VK4 (B)) VH: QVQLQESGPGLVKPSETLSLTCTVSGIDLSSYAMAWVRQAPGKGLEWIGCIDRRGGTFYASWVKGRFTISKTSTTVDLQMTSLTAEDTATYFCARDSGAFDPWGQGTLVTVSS VL: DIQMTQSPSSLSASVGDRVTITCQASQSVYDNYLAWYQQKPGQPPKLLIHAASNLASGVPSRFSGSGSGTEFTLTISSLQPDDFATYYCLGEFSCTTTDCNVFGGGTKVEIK has what kon?
6.12e+06
